Hey, just so you know, these numbers are from paper PMC11758220.

Target desc: ORP1 (Homo sapiens, UniProt Q9BXW6)
Construct: ORP1(534-950); host or cells: E. coli BL21(DE3)
Sequence (Q9BXW6 534-950): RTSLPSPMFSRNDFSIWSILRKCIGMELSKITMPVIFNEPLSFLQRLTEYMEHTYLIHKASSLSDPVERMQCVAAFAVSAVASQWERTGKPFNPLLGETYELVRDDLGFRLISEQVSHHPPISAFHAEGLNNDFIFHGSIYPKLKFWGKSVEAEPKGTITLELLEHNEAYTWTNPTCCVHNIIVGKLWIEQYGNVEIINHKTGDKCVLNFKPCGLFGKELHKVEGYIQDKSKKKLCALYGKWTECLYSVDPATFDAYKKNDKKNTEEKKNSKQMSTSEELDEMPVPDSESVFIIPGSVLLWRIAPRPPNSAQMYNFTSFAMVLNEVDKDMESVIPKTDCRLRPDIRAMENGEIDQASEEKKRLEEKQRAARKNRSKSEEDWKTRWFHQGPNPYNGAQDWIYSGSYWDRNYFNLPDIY
Protocol details: Fluorescence polarisation (FP) competition with NBD-cholesterol, ORP1
Format: binding
Experimental conditions: single dose, Dose = 10 µM
Property label: inhibition at 10 µM (%)
# number only, unit % dropped from output

response.value for CC12CCC(O)CC1CCc1c2[nH]c2ccc(C(F)(F)F)cc12 (stereo not shown) [Compound 10g] (field: inhibition at 10 µM) = 39.2

# molecule CCCCCNc1ccc2c(c1)[C@@]13CC[C@@H]4C[C@@H](CC[C@@]41C)OC3=N2 [Compound 19c] ; its inhibition at 10 µM = 47.5

According to the records, this molecule C[C@]12CC[C@@H](O)C[C@H]1CCc1[nH]c(-c3ccccc3)nc12 [Compound 9] displays inhibition at 10 µM of -0.8

In plain terms, COc1ccc(-c2ccc3c(c2)C24CCC5CC(CCC52C)OC4=N3)cc1 (stereo not shown) [Compound 21b] has a documented inhibition at 10 µM of 72.5

Recorded result, CCCCN(C)c1ccc2c(c1)[C@@]13CC[C@@H]4C[C@@H](CC[C@@]41C)OC3=N2 [Compound 19d] , inhibition at 10 µM: 93.3

Next:
Form field inhibition at 10 µM, entry C[C@]12CC[C@@H]3C[C@H]1CC[C@@]21C(=Nc2ccc(Br)cc21)O3 (racemic) [Compound 15b] : 60

inhibition at 10 µM reading for Cc1cc(C)c2c(c1)N=C1[C@@]2(O)CC[C@@H]2C[C@H](O)CC[C@]12C [Compound 14c] : 0

Per the record, CC12CCC3CC1CCC21C(=Nc2c(Br)cc(C(F)(F)F)cc21)O3 (stereo not shown) [Compound 15h] has inhibition at 10 µM of 68.3

Consider C[C@]12CC[C@@H](O)C[C@H]1CCC(=O)c1cc(Br)ccc1NC2=O [Compound 11b] . Its measured inhibition at 10 µM is -1.7

Value of measured inhibition at 10 µM for the entry COc1ccc2c(c1)C(=O)CC[C@@H]1C[C@H](O)CC[C@]1(C)C(=O)N2 [Compound 11d] : -3.3

Memo: C[C@]12CC[C@@H](O)C[C@H]1CCC[C@]21Nc2ccccc2-n2cccc21 [Compound 4] , reported inhibition at 10 µM: 5.8

Per the record, CC12CCC3CC1CCC21C(=Nc2ccc(N4CCNCC4)cc21)O3 (stereo not shown) [Compound 22] has inhibition at 10 µM of -7.5

inhibition at 10 µM reading for C[C@]12CC[C@@H](O)C[C@H]1CCc1c2nc2ccccc2c1-c1ccc(F)cc1 [Compound 2d] : 5

# inhibition at 10 µM (molecule: CC12CCC3CC1CCC21C(=Nc2ccc(Cl)cc21)O3 (stereo not shown) [Compound 15c] ) is 40

Noted for Cc1ccc2[nH]c3c(c2c1)CC[C@@H]1C[C@H](O)CC[C@]31C [Compound 10e] : its inhibition at 10 µM reads 27.5

Per the records, this molecule ( C[C@]12CC[C@@H](O)C[C@H]1CCc1nc3ccccc3nc12 [Compound 7a] ) has inhibition at 10 µM equal to 16.7
